- run-parameters: in acetone, 318.15 K
test-readout: solubility (mole fraction)
Just the number, please, no unit after it.

Look up and state reported solubility (mole fraction) for "Cc1ccccc1S(N)(=O)=O" 0.146

----------
- run-parameters: in acetonitrile, 319.15 K
test-readout: solubility (mole fraction)
Just the number, please, no unit after it.

Look up and state reported solubility (mole fraction) for "Cc1ccccc1S(N)(=O)=O" 0.0634

----------
- run-parameters: in ethyl acetate, 313.15 K
test-readout: solubility (mole fraction)
Just the number, please, no unit after it.

Look up and state reported solubility (mole fraction) for "Cc1ccccc1S(N)(=O)=O" 0.0518

Just for reference, BigSolDB 2.1 is where these values come from.
